Data provenance: patent US20260200990A1

Assay: Stability of peptide mixtures under long term and accelerated storage (UPLC)
Type: physicochemical
Conditions: peptide in mixture of 6 peptides; Initial
Ends that are not written are not given here.

# entry_sequence, unit_abbrev, Assay (net peptide content) (mg/vial)
data = [
    ("YPALMPLYACIQAKQAFTFSPTYKAFLSKQYMNLYPVAR (cysteinylated cysteine) [SEQ ID 6, HBV Pol fragment SLP with cysteinylated cysteine]", "mg/vial", 0.21),
    ("LSAMSTTDLEAYFKDCLFKDWEELG [SEQ ID 2]", "mg/vial", 0.24),
    ("VLSRKYTSFPWLLGCTANWILRGTSFVYVPSALNPA [Cystine(C(C)) containing SEQ ID NO: 3] (VLSRKYTSFPWLLGC(Cys)TANWILRGTSFVYVPSALNPA) [HBV Pol fragment SLP with cysteinylated cysteine]", "mg/vial", 0.24),
    ("AARLCCQLDPARDVLCLRPVGAESR [Cystine(C(C)) containing SEQ ID NO: 4]", "mg/vial", 0.21),
    ("VVNHYFQTRHYLHTLWKAGILYKRETTRSASFCGSPYSW (VVNHYFQTRHYLHTLWKAGILYKRETTRSASFC(Cys)GSPYSW) [SEQ ID 5, HBV Pol fragment SLP with cysteinylated cysteine]", "mg/vial", 0.20),
    ("HLSLRGLPVCAFSSAGPCALRFTSA [Cystine(C(C)) containing SEQ ID NO: 1]", "mg/vial", 0.24),
]

----------
Assay: Stability of cysteine and cystine-containing peptides in 20% v/v DMSO in WFI (UPLC-UV-MS purity)
Format: physicochemical
Details: Time 0 h, room temperature
Ends that are not written are not given here.

# entry_sequence, Purity (% a/a)
rows = [
    ("VLSRKYTSFPWLLGCTANWILRGTSFVYVPSALNPA [Cystine(C(C)) containing SEQ ID NO: 3] (VLSRKYTSFPWLLGC(Cys)TANWILRGTSFVYVPSALNPA) [HBV Pol fragment SLP with cysteinylated cysteine]", 97.44),
    ("HLSLRGLPVCAFSSAGPCALRFTSA [Cystine(C(C)) containing SEQ ID NO: 1]", 97.14),
    ("VLSRKYTSFPWLLGCTANWILRGTSFVYVPSALNPA [Cysteine (C) containing SEQ ID NO: 3, HBV Pol fragment, unmodified cysteine comparator, reference compound]", 97.66),
    ("AARLCCQLDPARDVLCLRPVGAESR [Cystine(C(C)) containing SEQ ID NO: 4]", 93.50),
    ("AARLCCQLDPARDVLCLRPVGAESR [Cysteine (C) containing SEQ ID NO: 4, reference compound]", 96.51),
    ("HLSLRGLPVCAFSSAGPCALRFTSA [Cysteine (C) containing SEQ ID NO: 1, reference compound]", 95.01),
]

----------
Experiment: Stability of peptide mixtures under long term and accelerated storage (UPLC)
Format: physicochemical
Details: peptide in mixture of 6 peptides; Storage at 5 ± 3° C., T3M
Ends that are not written are not given here.

# entry_sequence, Assay (net peptide content) (mg/vial)
data = [
    ("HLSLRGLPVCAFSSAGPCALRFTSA [Cystine(C(C)) containing SEQ ID NO: 1]", 0.23),
    ("LSAMSTTDLEAYFKDCLFKDWEELG [SEQ ID 2]", 0.25),
    ("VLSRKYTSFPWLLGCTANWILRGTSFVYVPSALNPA [Cystine(C(C)) containing SEQ ID NO: 3] (VLSRKYTSFPWLLGC(Cys)TANWILRGTSFVYVPSALNPA) [HBV Pol fragment SLP with cysteinylated cysteine]", 0.25),
    ("YPALMPLYACIQAKQAFTFSPTYKAFLSKQYMNLYPVAR (cysteinylated cysteine) [SEQ ID 6, HBV Pol fragment SLP with cysteinylated cysteine]", 0.22),
    ("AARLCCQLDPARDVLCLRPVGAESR [Cystine(C(C)) containing SEQ ID NO: 4]", 0.21),
]
